Recorded values, source patent US20170267768A1.

# SYSTEM UNDER TEST: Staphylococcus aureus Protein A (Staphylococcus aureus, UniProt P38507 37-477)
# ASSAY REMARKS: Protein A binding measured as in Example 1, compared to TS1C
Label rule, in plain words: Fold Improvement in Protein A Binding Capacity of 8 fold and up is true (1), under 8 fold is false (0).

{"columns": ["BINDER", "CLASS ASSIGNMENT"],
 "data": [
  ["scFv-2C (scFv, also called clone 2) scFv: QVQLVQSGGGLVQPGGSLRLSCAASGFTFSSYAMHWVRQAPGKGLEWVSVISPAGRNKYYADSVKGRFTISRDNSKNTLYLQMNSLRAEDTAVYYCARASVGATGPFDIWGQGTLVTVSSASTGGGGSGGGGSGGGGSGGGGSSSELTQPPSVSVAPGQTVTITCQGDSLRSYYASWYQQKPGTAPKLLIYGENNRPSGVPDRFSGSSSGTSASLTITGAQAEDEADYYCNSRDSSGTHLTVFGGGTKLTVLGGGSGGC", "false (0)"],
  ["scFv-11C (scFv, also called clone 11) scFv: QVQLVQSGGGLVQPGGSLRLSCAASGFTFSSYAMHWVRQAPGKGLEWVAVISHHGSNTYYADSVKGRFTISRDNSKNTLYLQMNSLRAEDTAVYYCARASVGATGPFDIWGQGTLVTVSSASTGGGGSGGGGSGGGGSGGGGSSSELTQPPSVSVAPGQTVTITCQGDSLRSYYASWYQQKPGTAPKLLIYGENNRPSGVPDRFSGSSSGTSASLTITGAQAEDEADYYCNSRDSSGTHLTVFGGGTKLTVLGGGSGGC", "true (1)"],
  ["scFv-10C (scFv, also called clone 10) scFv: QVQLVQSGGGLVQPGGSLRLSCAASGFTFSSYAMHWVRQAPGKGLEWVSAISPPGHNTYYADSVKGRFTISRDNSKNTLYLQMNSLRAEDTAVYYCARASVGATGPFDIWGQGTLVTVSSASTGGGGSGGGGSGGGGSGGGGSSSELTQPPSVSVAPGQTVTITCQGDSLRSYYASWYQQKPGTAPKLLIYGENNRPSGVPDRFSGSSSGTSASLTITGAQAEDEADYYCNSRDSSGTHLTVFGGGTKLTVLGGGSGGC", "true (1)"],
  ["scFv-4C (scFv, also called clone 4) scFv: QVQLVQSGGGLVQPGGSLRLSCAASGFTFSSYAMHWVRQAPGKGLEWVTVISPHGRNKYYADSVKGRFTISRDNSKNTLYLQMNSLRAEDTAVYYCARASVGATGPFDIWGQGTLVTVSSASTGGGGSGGGGSGGGGSGGGGSSSELTQPPSVSVAPGQTVTITCQGDSLRSYYASWYQQKPGTAPKLLIYGENNRPSGVPDRFSGSSSGTSASLTITGAQAEDEADYYCNSRDSSGTHLTVFGGGTKLTVLGGGSGGC", "false (0)"],
  ["scFv-3C (scFv, also called clone 3) scFv: QVQLVQSGGGLVQPGGSLRLSCAASGFTFSSYAMHWVRQAPGKGLEWVTVISPDGHNTYYADSVKGRFTISRDNSKNTLYLQMNSLRAEDTAVYYCARASVGATGPFDIWGQGTLVTVSSASTGGGGSGGGGSGGGGSGGGGSSSELTQPPSVSVAPGQTVTITCQGDSLRSYYASWYQQKPGTAPKLLIYGENNRPSGVPDRFSGSSSGTSASLTITGAQAEDEADYYCNSRDSSGTHLTVFGGGTKLTVLGGGSGGC", "false (0)"],
  ["scFv-7C (scFv, also called clone 7) scFv: QVQLVQSGGGLVQPGGSLRLSCAASGFTFSSYAMHWVRQAPGKGLEWVSVISPAGPNTYYADSVKGRFTISRDNSKNTLYLQMNSLRAEDTAVYYCARASVGATGPFDIWGQGTLVTVSSASTGGGGSGGGGSGGGGSGGGGSSSELTQPPSVSVAPGQTVTITCQGDSLRSYYASWYQQKPGTAPKLLIYGENNRPSGVPDRFSGSSSGTSASLTITGAQAEDEADYYCNSRDSSGTHLTVFGGGTKLTVLGGGSGGC", "true (1)"]
]}
